Assay: Acute toxicity
Conditions: in vivo, iv; mouse, observed for a week
Protocol: The 50% lethal dose (LD50) of the test compound was calculated according to the Weil's method from the number of mice died a week after the administration.

# MOLECULE, LD50 at 168 h
rows = [
    ("COc1cc(NC(C)=O)ccc1OCC(O)CN1CCN(c2cccc(F)c2)CC1.Cl (stereo not shown) [Compound 4]", "280 mg/kg"),
]

---

tested on: intracranial pressure; test: Effect of i.v. injection of test compounds on intracranial pressure in rats; type: in vivo, rat (male SD-strain); settings: rat, 1.0 mg/kg, 120 minutes, 0 minute = 100
Each item that follows carries a reported Changes in intracranial pressure.
REPORTED_METRIC: Changes in intracranial pressure (%)

# COMPOUND, REPORTED_METRIC, RECORDED_NUMBER
records = [
    ("COc1cc(NC(C)=O)ccc1OCC(O)CN1CCN(c2ccccc2)CC1 (stereo not drawn)", "Changes in intracranial pressure", 91.7),
    ("COc1cc(NC(C)=O)ccc1OCC(O)CN1CCN(c2ccccc2C)CC1 (stereo not drawn)", "Changes in intracranial pressure", 90.1),
    ("COc1cc(NC(C)=O)ccc1OCC(O)CN1CCN(c2ccccc2F)CC1 (stereo not drawn)", "Changes in intracranial pressure", 81.3),
    ("COc1cc(NC(C)=O)ccc1OCC(O)CN1CCN(c2cccc(F)c2)CC1.Cl (stereo not drawn)", "Changes in intracranial pressure", 82.2),
    ("COc1cc(NC(C)=O)ccc1OCC(O)CN1CCN(c2ccccc2Cl)CC1 (stereo not drawn)", "Changes in intracranial pressure", 85.3),
    ("COc1cc(NC(C)=O)ccc1OCC(O)CN1CCN(c2cccc(C(F)(F)F)c2)CC1 (stereo not drawn)", "Changes in intracranial pressure", 90.5),
]
